# system: GT198 (Homo sapiens)
# experiment description: In vitro DNA-binding assay of GT198 (biotinylated DNA, chemiluminescence)
*1 amine or outer side, *2 acyl side, *3 side chain or, on linkers, in order; H or OH if unused. Where a SMILES comes first, the peptide text is derived from it. Bridges are numbered along the chain shown (N, C = ends). Roman numbers before positions name the chains, in order. [ ]: non-standard residue; d: D form. Actinocin(9to1) = Cc1c2oc3c(C)ccc(C(=O)[*:1])c3nc-2c(C(=O)[*:2])c(N)c1=O; NMeV = CN[C@H](C(=O)O)C(C)C; Sar = CNCC(=O)O

# compound, system, GT198 inhibition (in words)
rows = [
    ("COc1cc([C@@H]2c3cc4c(cc3[C@@H](O[C@@H]3O[C@@H]5CO[C@@H](C)O[C@H]5[C@H](O)[C@H]3O)[C@H]3COC(=O)[C@H]23)OCO4)cc(OC)c1O [Etoposide]", "GT198 (Homo sapiens)", "GT198 inhibitors"),
    ("CO[C@H]1C[C@@H]2CC[C@@H](C)[C@@](O)(O2)C(=O)C(=O)N2CCCC[C@H]2C(=O)O[C@H]([C@H](C)C[C@@H]2CC[C@@H](O)[C@H](OC)C2)CC(=O)[C@H](C)/C=C(\\C)[C@@H](O)[C@@H](OC)C(=O)[C@H](C)C[C@H](C)/C=C/C=C/C=C/1C", "GT198 (Homo sapiens)", "positive inhibitors"),
    ("O=c1[nH]c(=O)n([C@H]2C[C@H](O)[C@@H](CO)O2)cc1C(F)(F)F", "GT198 (Homo sapiens)", "positive inhibitors"),
    ("CC(C)C[C@H](NC(=O)[C@H](CCc1ccccc1)NC(=O)CN1CCOCC1)C(=O)N[C@@H](Cc1ccccc1)C(=O)N[C@@H](CC(C)C)C(=O)[C@@]1(C)CO1", "GT198 (Homo sapiens)", "positive inhibitors"),
    ("Cc1c2oc3c(C)ccc(C(=O)N[C@@H]4C(=O)N[C@H](C(C)C)C(=O)N5CCC[C@H]5C(=O)N(C)CC(=O)N(C)[C@@H](C(C)C)C(=O)O[C@@H]4C)c3nc-2c(C(=O)N[C@@H]2C(=O)N[C@H](C(C)C)C(=O)N3CCC[C@H]3C(=O)N(C)CC(=O)N(C)[C@@H](C(C)C)C(=O)O[C@@H]2C)c(N)c1=O [Dactinomycin] (I: T[dV]P[Sar][NMeV] / II: T[dV]P[Sar][NMeV]; ester I:1-I:C, II:1-II:C; linker I:N-II:N via Actinocin(9to1))", "GT198 (Homo sapiens)", "positive inhibitors"),
    ("COc1cc([C@@H]2c3cc4c(cc3[C@@H](O[C@@H]3O[C@@H]5CO[C@@H](c6cccs6)O[C@H]5[C@H](O)[C@H]3O)[C@H]3COC(=O)[C@H]23)OCO4)cc(OC)c1O [Teniposide]", "GT198 (Homo sapiens)", "GT198 inhibitors"),
]

###

# system: GT198 (Homo sapiens, UniProt Q9P2W1)
# Sequence (Q9P2W1 1-180): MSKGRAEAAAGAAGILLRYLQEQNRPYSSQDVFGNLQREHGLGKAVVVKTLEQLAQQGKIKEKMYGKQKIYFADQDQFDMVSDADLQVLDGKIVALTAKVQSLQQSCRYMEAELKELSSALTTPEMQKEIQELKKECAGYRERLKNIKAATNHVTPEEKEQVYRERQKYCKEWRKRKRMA
# experiment description: In vitro DNA-binding assay of GT198 (biotinylated DNA, chemiluminescence)
# study conditions: IC50, figures 2, 3; 150 nM DNA, sigmoidal curve fit; ND = not detectable
Rule: IC50 below 400 nM gives rule met, anything at or above gives rule not met.

# compound, system, class assignment
data = [
    ("O=C1c2c(O)ccc(O)c2C(=O)c2c(NCCNCCO)ccc(NCCNCCO)c21", "GT198 (Homo sapiens, UniProt Q9P2W1)", "rule met"),
    ("CCCCC(=O)OCC(=O)[C@]1(O)Cc2c(O)c3c(c(O)c2[C@@H](O[C@H]2C[C@H](NC(=O)C(F)(F)F)[C@H](O)[C@H](C)O2)C1)C(=O)c1c(OC)cccc1C3=O", "GT198 (Homo sapiens, UniProt Q9P2W1)", "rule not met"),
    ("CC(=O)[C@]1(O)Cc2c(O)c3c(c(O)c2[C@@H](O[C@H]2C[C@H](N)[C@H](O)[C@H](C)O2)C1)C(=O)c1ccccc1C3=O", "GT198 (Homo sapiens, UniProt Q9P2W1)", "rule met"),
    ("COc1cccc2c1C(=O)c1c(O)c3c(c(O)c1C2=O)C[C@@](O)(C(C)=O)C[C@@H]3O[C@H]1C[C@H](N)[C@H](O)[C@H](C)O1", "GT198 (Homo sapiens, UniProt Q9P2W1)", "rule met"),
    ("COc1cc([C@@H]2c3cc4c(cc3[C@@H](O[C@@H]3O[C@@H]5CO[C@@H](C)O[C@H]5[C@H](O)[C@H]3O)[C@H]3COC(=O)[C@H]23)OCO4)cc(OC)c1O [Etoposide]", "GT198 (Homo sapiens, UniProt Q9P2W1)", "rule met"),
]

###

# system: GT198 (Homo sapiens)
# experiment description: biochemical
// returns not met unless IC50 is strictly below 100 nM, in which case met

# compound, class assignment
records = [
    ("CC(=O)O[C@H]1C(=O)[C@@]2(C)[C@H]([C@H](OC(=O)c3ccccc3)[C@]3(O)C[C@H](OC(=O)[C@H](O)[C@@H](NC(=O)c4ccccc4)c4ccccc4)C(C)=C1C3(C)C)[C@]1(OC(C)=O)CO[C@@H]1C[C@@H]2O", "met"),
    ("CCc1c2c(nc3ccc(OC(=O)N4CCC(N5CCCCC5)CC4)cc13)-c1cc3c(c(=O)n1C2)COC(=O)[C@]3(O)CC", "not met"),
    ("CC[C@@]1(O)C(=O)OCc2c1cc1n(c2=O)Cc2cc3c(CN(C)C)c(O)ccc3nc2-1", "not met"),
    ("COc1cccc2c1C(=O)c1c(O)c3c(c(O)c1C2=O)C[C@@](O)(C(C)=O)C[C@@H]3O[C@H]1C[C@H](N)[C@H](O)[C@H](C)O1", "not met"),
    ("O=C1c2c(O)ccc(O)c2C(=O)c2c(NCCNCCO)ccc(NCCNCCO)c21", "not met"),
    ("CCCCC(=O)OCC(=O)[C@]1(O)Cc2c(O)c3c(c(O)c2[C@@H](O[C@H]2C[C@H](NC(=O)C(F)(F)F)[C@H](O)[C@H](C)O2)C1)C(=O)c1c(OC)cccc1C3=O", "not met"),
    ("CC[C@@]1(O)C(=O)OCc2c1cc1n(c2=O)Cc2cc3ccccc3nc2-1", "not met"),
    ("CC(=O)[C@]1(O)Cc2c(O)c3c(c(O)c2[C@@H](O[C@H]2C[C@H](N)[C@H](O)[C@H](C)O2)C1)C(=O)c1ccccc1C3=O", "not met"),
    ("COc1cc([C@@H]2c3cc4c(cc3[C@@H](O[C@@H]3O[C@@H]5CO[C@@H](C)O[C@H]5[C@H](O)[C@H]3O)[C@H]3COC(=O)[C@H]23)OCO4)cc(OC)c1O [Etoposide]", "met"),
]

###

# system: GT198 (Homo sapiens)
# Sequence (Q9P2W1 1-180): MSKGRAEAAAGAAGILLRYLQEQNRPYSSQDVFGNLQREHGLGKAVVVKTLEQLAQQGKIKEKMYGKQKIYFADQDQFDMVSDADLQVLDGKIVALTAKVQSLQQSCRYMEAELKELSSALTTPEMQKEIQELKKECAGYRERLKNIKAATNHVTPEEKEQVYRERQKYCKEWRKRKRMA
# experiment description: In vitro DNA-binding assay of GT198 (biotinylated DNA, chemiluminescence)

# chem smiles, system, GT198 inhibition (in words)
data = [
    ("NCC(=O)CCC(=O)O", "GT198 (Homo sapiens)", "positive inhibitors"),
    ("CCN(CC)CCNC(=O)c1c(C)[nH]c(/C=C2\\C(=O)Nc3ccc(F)cc32)c1C", "GT198 (Homo sapiens)", "positive inhibitors"),
]

###

# system: GT198 (Homo sapiens)
# experiment description: In vitro DNA-binding assay of GT198 (biotinylated DNA, chemiluminescence)
# study conditions: read-out: Efficacy
Readings of inhibition at 2 µM for the listed molecules
value type: inhibition at 2 µM (%)

# molecule, value type, units label, assay result
rows = [
    ("CC[C@@]1(O)C(=O)OCc2c1cc1n(c2=O)Cc2cc3ccccc3nc2-1", "inhibition at 2 µM", "%", 30),
    ("CC[C@@]1(O)C(=O)OCc2c1cc1n(c2=O)Cc2cc3c(CN(C)C)c(O)ccc3nc2-1", "inhibition at 2 µM", "%", 4),
    ("COc1cccc2c1C(=O)c1c(O)c3c(c(O)c1C2=O)C[C@@](O)(C(C)=O)C[C@@H]3O[C@H]1C[C@H](N)[C@H](O)[C@H](C)O1", "inhibition at 2 µM", "%", 48),
    ("COc1cc([C@@H]2c3cc4c(cc3[C@@H](O[C@@H]3O[C@@H]5CO[C@@H](C)O[C@H]5[C@H](O)[C@H]3O)[C@H]3COC(=O)[C@H]23)OCO4)cc(OC)c1O [Etoposide]", "inhibition at 2 µM", "%", 42),
]
